B1: Azoarcus group I ribozyme (parent)
chain: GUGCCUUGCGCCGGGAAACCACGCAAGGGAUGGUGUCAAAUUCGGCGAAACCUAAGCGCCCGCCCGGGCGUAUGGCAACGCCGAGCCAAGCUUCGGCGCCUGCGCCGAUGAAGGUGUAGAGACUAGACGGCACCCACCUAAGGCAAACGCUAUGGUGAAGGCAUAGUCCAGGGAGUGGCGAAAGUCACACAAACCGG

# Variants of: B1
# Procedure Text: reverse-splicing fitness (ratio to wild type); higher = more active; in vitro selection; Mg2+ level not given
Observable: reverse-splicing fitness
Simply state the number, no unit and no words.

[
  {
    "Mutations": "C82U A111U A120U C150G",
    "Measured Result": 0.00645
  }
]

Request: What does the record list as reverse-splicing fitness for C82G A120C A145G C150G C169U U176A ?
Result: 0.0128

Request: # iterate: C82G A111U A145U C150A C169G
Result: 0.00845

Request: # iterate: C82A A111G A120G A145G C150U C169A
Result: 0.0119

Request: # iterate: C82A A111C C150A C169U U176C
Result: 0.0182

Request: # iterate: C82U A111U A120U A145G C169G U176G
Result: 0.00146
